The origin of these recorded values is ChEMBL document CHEMBL1141213.

Exercise: state measured IC50 for each of the compounds provided.
- Target Of Assay: Cathepsin S (Mus musculus, UniProt O70370)
- Sequence (O70370 whole entry): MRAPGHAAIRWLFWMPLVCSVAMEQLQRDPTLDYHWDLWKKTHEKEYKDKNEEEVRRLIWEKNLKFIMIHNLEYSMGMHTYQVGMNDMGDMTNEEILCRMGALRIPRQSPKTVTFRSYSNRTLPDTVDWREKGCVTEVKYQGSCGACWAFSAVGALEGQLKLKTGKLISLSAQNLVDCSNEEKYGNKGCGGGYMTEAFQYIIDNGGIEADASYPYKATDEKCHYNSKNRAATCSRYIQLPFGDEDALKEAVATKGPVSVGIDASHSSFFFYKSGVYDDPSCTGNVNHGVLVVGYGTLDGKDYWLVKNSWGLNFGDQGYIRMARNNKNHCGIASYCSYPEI
- Procedure Text: Inhibitory activity against mouse cathepsin S
Please respond with the number in µM and leave the unit unwritten.

Q: Note down IC50 recorded for CC(C)C[C@@H](C(=O)NCC#N)c1cccc(-c2ccc(N3CCNCC3)cc2)c1
A: 34.1

Q: Note down IC50 recorded for N#CCNC(=O)C1(NC(=O)c2ccc(N3CCOCC3)cc2)CCCCC1
A: 4.5

Q: Note down IC50 recorded for N#CCNC(=O)C1(NC(=O)c2ccc(-c3csc(N4CCOCC4)n3)cc2)CCCCC1
A: 8.5

---

- Test system: A20
- Procedure Text: Effect of compound on antigen presentation in mouse A20 cells transfected with PC-specific mIgM by IL-2 secretion
- Type: functional, cell-based
pIC50: −log10 of the molar value.
Exercise: state measured pIC50 for each of the compounds provided.

Q: Note down pIC50 recorded for CN1CCN(c2nc(-c3ccc(C(=O)NC4(C(=O)NCC(F)(F)F)CCCCC4)cc3)cs2)CC1
A: < 4.00

Q: Note down pIC50 recorded for CCCN1CCN(c2ccc(C(=O)NC3(C(=O)NCC#N)CCCCC3)cc2)CC1
A: 5.21

Q: Note down pIC50 recorded for N#CCNC(=O)C1(NC(=O)c2ccc(-c3csc(N4CCOCC4)n3)cc2)CCCCC1
A: < 4.00

Q: Note down pIC50 recorded for N#CCNC(=O)C1(NC(=O)c2ccc(N3CCOCC3)cc2)CCCCC1
A: < 4.00
